tested on: Staphylococcus aureus; test: Antibacterial activity against […] Staphylococcus aureus ATCC 29213 assessed as reduction in bacterial growth incubated for 16 to 18 hrs by CLSI protocol based Muller Hinton broth assay; assay type: functional; conditions: time 16-18 hrs

mol	MIC
C[C@@H]1[C@@H](O)[C@H](C)[C@]23CCC(=O)[C@H]2[C@@](C)([C@H](C)CC3)[C@@H]1OC(=O)CS[C@@H]1CC[C@@H](N)C[C@H]1O	> 32 µg/mL
CC[C@H]1C[C@@H](OC(=O)CS[C@@H]2CC[C@@H](N)C[C@H]2O)[C@]2(C)[C@H](C)C[C@]3(CCC(=O)[C@H]32)[C@@H](C)[C@@H]1O	> 16 µg/mL
C[C@@H]1CC[C@@]23CCC(=O)[C@H]2[C@]1(C)[C@H](OC(=O)CSc1ccncc1)CC(=O)[C@@H](O)[C@@H]3C	> 16 µg/mL
CC[C@@]1(C)C[C@@H](OC(=O)CSc2ccncc2)[C@]2(C)[C@H](C)CC[C@]3(CCC(=O)[C@H]32)[C@@H](C)[C@@H]1O	0.06 µg/mL
